- System: MCF7
- experiment: Antiproliferative activity against human MCF7 cells assessed as growth inhibition incubated up to 4 days by MTS assay
- Format: functional, cell-based
- measurement.parameters: MCF7, 96 h
Below: a set of entries, each annotated with reported IC50.
Please give a number only; it is taken to be in µM.

Before answering, review these 10 worked examples.
Would you kindly share the measured IC50 for Cc1cc2c(cc1C)[n+](CC(=O)c1ccc3ccccc3c1)cn2C(c1ccccc1)c1cc2ccccc2oc1=O.[Br-] (stereo not drawn) ? 2.04

Would you kindly share the measured IC50 for O=C(C[n+]1ccn(C(c2ccccc2)c2cc3ccccc3oc2=O)c1)c1ccc2ccccc2c1 (stereo not drawn) ? 7.27

Would you kindly share the measured IC50 for COc1ccc(C(=O)C[n+]2cn(C(c3ccccc3)c3cc4ccccc4oc3=O)c3ccccc32)cc1 (stereo not drawn) ? 1.74

Would you kindly share the measured IC50 for COc1ccc(C(=O)C[n+]2cn(C(c3ccccc3)c3cc4ccccc4oc3=O)c3cc(C)c(C)cc32)cc1.[Br-] (stereo not drawn) ? 1.58

Would you kindly share the measured IC50 for Cc1n(C(c2ccccc2)c2cc3ccccc3oc2=O)c2ccccc2[n+]1CC(=O)c1ccc(C(F)(F)F)cc1 (stereo not drawn) ? 8.15

Would you kindly share the measured IC50 for Cc1cc2c(cc1C)[n+](CC(=O)c1ccc(Br)cc1)cn2C(c1ccccc1)c1cc2ccccc2oc1=O.[Br-] (stereo not drawn) ? 2.29

Would you kindly share the measured IC50 for Cc1n(C(c2ccccc2)c2cc3ccccc3oc2=O)c2ccccc2[n+]1CC(=O)c1ccc(-c2ccccc2)cc1 (stereo not drawn) ? 2.86

Would you kindly share the measured IC50 for Cc1cc2c(cc1C)[n+](CC(=O)c1ccc(-c3ccccc3)cc1)cn2C(c1ccccc1)c1cc2ccccc2oc1=O (stereo not drawn) ? 1.66

Would you kindly share the measured IC50 for O=C(C[n+]1ccn(C(c2ccccc2)c2cc3ccccc3oc2=O)c1)c1ccc(-c2ccccc2)cc1 (stereo not drawn) ? 12.7

Would you kindly share the measured IC50 for Cc1cc2c(cc1C)[n+](CC(=O)c1ccccc1)cn2C(c1ccccc1)c1cc2ccccc2oc1=O (stereo not drawn) ? 4.17

More entries:
Would you kindly share the measured IC50 for Cc1cc2c(cc1C)[n+](CC(=O)c1ccc(C(F)(F)F)cc1)cn2C(c1ccccc1)c1cc2ccccc2oc1=O (stereo not drawn) ? 6.61

Would you kindly share the measured IC50 for O=C(C[n+]1cn(C(c2ccccc2)c2cc3ccccc3oc2=O)c2ccccc21)c1ccc(Br)cc1 (stereo not drawn) ? 1.24

Would you kindly share the measured IC50 for O=C(C[n+]1cn(C(c2ccccc2)c2cc3ccccc3oc2=O)c2ccccc21)c1ccccc1 (stereo not drawn) ? 5.1

Would you kindly share the measured IC50 for O=C(C[n+]1cn(C(c2ccccc2)c2cc3ccccc3oc2=O)c2ccccc21)c1ccc(-c2ccccc2)cc1.[Br-] (stereo not drawn) ? 0.96

Would you kindly share the measured IC50 for O=C(C[n+]1cn(C(c2ccccc2)c2cc3ccccc3oc2=O)c2ccccc21)c1ccc(C(F)(F)F)cc1 (stereo not drawn) ? 1.29

Source listed as ChEMBL document CHEMBL4610035.
